Sourced from PubChem BioAssay (NCI)

Experiment: NCI Yeast Anticancer Drug Screen. Data for the rad50 strain (AID 155)
Settings: S. cerevisiae rad50 strain growth inhibition; at 5.0 µM (retest, dose inferred, filed as 0.5); active compounds read high
Experimental: Growth inhibition of yeast strains with defined genetic alterations is measured as a screen for potential anti-cancer activity. Selected strains with alterations in DNA damage repair or cell cycle control were exposed to compounds and growth inhibition was measured relative to vehicle treated controls. The strain used in this assay is rad50
About 79,000 compounds went through this panel and 15% of them were active in at least one assay; those are over-represented in the sample as a whole.
Please mark YES if the recorded growth inhibition is equal to or greater than 20%, and NO if it falls below.

See these solved cases before continuing.
# compound, assigned-category
rows = [
    ("O=C([O][Hg][CH2]C1CC(O)CC([CH2][Hg][O]C(=O)c2ccccc2)O1)c1ccccc1 (configuration not stated)", "YES"),
    ("[Cl][Hg][Cl].c1cnccn1", "YES"),
    ("Cc1c2ccccc2cc2ccccc12", "NO"),
    ("Cc1c(N)nc([C@H](CC(N)=O)NC[C@H](N)C(N)=O)nc1C(=O)N[C@H](C(=O)N[C@H](C)[C@@H](O)[C@H](C)C(=O)N[C@H](C(=O)NCCc1nc(-c2nc(C(=O)NCCC[S+](C)C)cs2)cs1)[C@@H](C)O)C(OC1OC(CO)C(O)C(O)C1OC1OC(CO)C(O)C(OC(N)=O)C1O)c1cnc[nH]1 (some centres not stated)", "YES"),
    ("CCOP(=S)(S)OCC.[Pd]", "YES"),
]

In: Determine whether measured growth inhibition meets or exceeds 20% for O=C1C=CC(=O)C1(Br)Br
Out: YES

In: Does CCOP(=O)(OCC)Oc1ccc([N+](=O)[O-])cc1 have a reported growth inhibition of at least 20%?
Out: NO
